Entries and their measured IC50 follow.
Biological target: PRMT5 (Homo sapiens, UniProt O14744)
Construct: purchased Viva (custom protein)
Sequence (O14744 whole entry): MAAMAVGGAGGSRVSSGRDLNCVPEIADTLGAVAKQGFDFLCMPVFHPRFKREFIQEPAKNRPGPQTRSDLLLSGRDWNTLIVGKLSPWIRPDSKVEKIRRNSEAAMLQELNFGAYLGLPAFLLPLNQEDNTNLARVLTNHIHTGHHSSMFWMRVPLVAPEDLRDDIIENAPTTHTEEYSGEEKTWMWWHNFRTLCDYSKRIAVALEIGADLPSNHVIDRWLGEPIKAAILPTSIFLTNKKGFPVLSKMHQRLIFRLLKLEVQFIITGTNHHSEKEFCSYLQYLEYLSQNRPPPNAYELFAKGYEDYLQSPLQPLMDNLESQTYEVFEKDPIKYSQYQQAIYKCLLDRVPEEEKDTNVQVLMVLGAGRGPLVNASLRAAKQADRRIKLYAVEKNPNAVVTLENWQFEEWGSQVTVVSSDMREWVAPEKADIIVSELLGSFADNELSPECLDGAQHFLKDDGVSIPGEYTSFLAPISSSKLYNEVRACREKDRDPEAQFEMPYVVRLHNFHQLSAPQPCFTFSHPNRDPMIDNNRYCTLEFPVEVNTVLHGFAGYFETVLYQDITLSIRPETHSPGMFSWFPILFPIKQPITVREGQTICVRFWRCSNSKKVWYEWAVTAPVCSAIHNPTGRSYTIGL
Sequence (Q9BQA1 whole entry partner): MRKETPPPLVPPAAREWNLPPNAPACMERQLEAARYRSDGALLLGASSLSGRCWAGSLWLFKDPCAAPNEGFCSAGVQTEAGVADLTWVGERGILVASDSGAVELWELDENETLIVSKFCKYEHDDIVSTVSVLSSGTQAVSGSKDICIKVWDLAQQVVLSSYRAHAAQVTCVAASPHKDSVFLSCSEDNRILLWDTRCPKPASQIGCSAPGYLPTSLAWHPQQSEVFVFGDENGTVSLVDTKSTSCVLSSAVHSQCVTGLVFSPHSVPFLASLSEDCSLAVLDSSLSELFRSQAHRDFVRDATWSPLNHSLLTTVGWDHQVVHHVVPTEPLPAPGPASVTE
Assay: PRMT5 biochemical IC50 assay with MTA as cofactor
Settings: PRMT5, MTA as cofactor; read-out: MTA IC50

Below, each entry is followed by its recorded IC50 result.
MOLECULE	RESULT_VALUE
COc1ncc(NC(=O)C(=O)N2C[C@@H](C)CC[C@@H]2c2cc3[nH]ncc3s2)cc1C(N)=O (single isomer, unassigned) [Compound 1006]	< 50 nM
Cc1cc(NC(=O)C(=O)N2C[C@@H](C)C(F)(F)C[C@@H]2c2cccc3[nH]ncc23)cnc1N (single isomer, unassigned) [Compound 1034]	> 500 nM
Cc1cc(NC(=O)C(=O)N2C[C@H](C)CC[C@H]2c2ccncc2)cnc1N (single isomer, unassigned) [Compound 592]	50 to 500 nM
CCc1cc(NC(=O)C(=O)N2C[C@@H](C)CC[C@@H]2c2ccc(N3C[C@H]4CCN(C)C[C@H]4C3)cc2)cnc1N (racemic) [Compound 1167]	< 50 nM

IC50 measured on Cc1cncc(NC(=O)C(=O)N2C[C@H](C)CC[C@H]2c2cccs2)c1 (single isomer, unassigned) [Compound 68] = < 50 nM

IC50 measured on CCc1cc(NC(=O)C(=O)N2C[C@@H](C)CC[C@@H]2c2ccc(N3CCCC4(CCN(C)CC4)C3)cc2)cnc1N [Compound 1401] = < 50 nM

###

Tested on: HAP1 MTAP-deleted cell line
Test: Viability assay, MTAP-deleted cell line
Assay type: cell-based
Conditions: viability assay, MTAP-deleted cell line; read-out: HAP1 MTAP deleted viability
pIC50: −log10 of the molar value.
VALUE_KIND: pIC50

Below, each entry is followed by its recorded pIC50 result.
COMPOUND	pIC50
COc1ncc(NC(=O)C(=O)N2CCCCC2c2ccccc2)cc1C(N)=O (single isomer, unassigned)	< 5.00
NC(=O)c1cncc(NC(=O)C(=O)N2CCCCC2C2CCCCC2)c1 (single isomer, unassigned) [Compound 113]	5.00 to 6.00

Result for NC(=O)c1cncc(NC(=O)C(=O)N2CCCCC2C2CCCCC2)c1 (single isomer, unassigned) [Compound 108] , tested on HAP1 MTAP-deleted cell line, pIC50: < 5.00

###

Entries and their measured IC50 follow.
System: HAP1 MTAP-intact cell line
Test: SDMA in-cell western assay, HAP1 MTAP-intact
Type: cell-based
Details: Homo sapiens, HAP1, SDMA in-cell western, HAP1 MTAP-intact; read-out: MTAP HAP1 intact IC50

MOLECULE	IC50
C[C@@H]1CC[C@@H](c2ccc(-c3cc[nH]n3)cc2)N(C(=O)C(=O)Nc2cncc(C(N)=O)c2)C1 (single isomer, unassigned)	> 1000 nM

Result for CCc1cc(NC(=O)C(=O)N2C[C@@H](C)CC[C@@H]2c2ccc(N3CCOC4(CN(C)C4)C3)cc2)cnc1N (single isomer, unassigned) , tested on HAP1 MTAP-intact cell line, IC50: 100 to 1000 nM

Result for CCc1cc(NC(=O)C(=O)N2C[C@@H](C)CC[C@@H]2c2ccc3[nH]ncc3c2)cnc1N (single isomer, unassigned) , tested on HAP1 MTAP-intact cell line, IC50: 100 to 1000 nM

Result for CCc1cc(NC(=O)C(=O)N2C[C@@H](C)CC[C@@H]2c2ccc3nn([C@@H]4CCN(C)C4)cc3c2)cnc1N (racemic) , tested on HAP1 MTAP-intact cell line, IC50: < 100 nM

Result for C[C@@H]1CC[C@@H](c2ccc3c(cnn3CCN(C)C)c2)N(C(=O)C(=O)Nc2cnc(N)c(C3CC3)c2)C1 (single isomer, unassigned) , tested on HAP1 MTAP-intact cell line, IC50: 100 to 1000 nM

Result for COc1ncc(NC(=O)C(=O)N2C[C@@H](C)CC[C@@H]2c2ccc3sc([C@@H]4CCN(C)C[C@H]4C)nc3c2)cc1C(N)=O (racemic) , tested on HAP1 MTAP-intact cell line, IC50: < 100 nM

Result for Cc1cc(NC(=O)C(=O)N2CCCC[C@@H]2C2CCCCC2)cnc1N (single isomer, unassigned) , tested on HAP1 MTAP-intact cell line, IC50: > 1000 nM

Result for Cc1cncc(NC(=O)C(=O)N2C[C@H](C)CC[C@H]2c2ccc(O)cc2)c1 (racemic) , tested on HAP1 MTAP-intact cell line, IC50: > 1000 nM

Result for Cc1cc(NC(=O)C(=O)N2CCCCC2c2cccc3ocnc23)cnc1N (stereo not shown) , tested on HAP1 MTAP-intact cell line, IC50: > 1000 nM

Result for Cc1cc(NC(=O)C(=O)N2C[C@H](C)CC[C@H]2c2ccc(N3CCN(C)CC3)nc2)cnc1N (single isomer, unassigned) , tested on HAP1 MTAP-intact cell line, IC50: < 100 nM

Result for `COc1ncc(NC(=O)C(=O)N2C[C@@H](C)CC[C@@H]2c2ccc3sc(CN(C)C)nc3c2)cc1C(N)=O` , tested on HAP1 MTAP-intact cell line, IC50: 100 to 1000 nM

Result for CCc1cc(NC(=O)C(=O)N2C[C@H](C)CC[C@H]2c2ccc(NC(C)=O)cc2)cnc1N (single isomer, unassigned) , tested on HAP1 MTAP-intact cell line, IC50: > 1000 nM

Result for C[C@@H]1CC[C@@H](c2cc(Cl)cc(Cl)c2)N(C(=O)C(=O)Nc2cncc(C(N)=O)c2)C1 (single isomer, unassigned) , tested on HAP1 MTAP-intact cell line, IC50: > 1000 nM

###

Entries and their measured pIC50 follow.
Biological target: PRMT5 (Homo sapiens)
Construct: purchased Viva (custom protein)
Test: PRMT5 biochemical IC50 assay with SAM as cofactor
Settings: PRMT5, SAM as cofactor; read-out: SAM IC50
pIC50: −log10 of the molar value.

Below, each entry is followed by its recorded pIC50 result.
COMPOUND	ASSAY_TARGET	pIC50
CCc1cc(NC(=O)C(=O)N2C[C@@H](C)CC[C@@H]2c2ccc(NC)nc2)cnc1N (single isomer, unassigned) [Compound 878]	PRMT5 (Homo sapiens)	< 6.30
CCc1cc(NC(=O)C(=O)N2C[C@@H](C)CC[C@@H]2c2ccc3sc(C4CC5CCC(C4)N5C)nc3c2)cnc1N (some centres unmarked) [Compound 1187]	PRMT5 (Homo sapiens)	> 7.30
CCc1cc(NC(=O)C(=O)N2C[C@@H](C)CC[C@@H]2c2ccc3c(c2)CCC(=O)N3)cnc1N (single isomer, unassigned) [Compound 729]	PRMT5 (Homo sapiens)	< 6.30

Please look at the following compound next.
pIC50 measured on COc1ncc(NC(=O)C(=O)N2C[C@@H](C)CC[C@@H]2c2ccc3[nH]ncc3c2)cc1C(N)=O (single isomer, unassigned) [Compound 464] = 6.30 to 7.30

###

Molecular target: PRMT5 (Homo sapiens, UniProt O14744)
Construct: purchased Viva (custom protein)
Experiment: PRMT5 biochemical IC50 assay with no cofactor
Details: PRMT5, no cofactor; read-out: No Cofactor/ rel IC50
pIC50: −log10 of the molar value.
Entries and their measured pIC50 follow.

pIC50 measured on NC(=O)c1cncc(NC(=O)C(=O)N2CCCCC2c2ccccc2)c1N (stereo not shown) = 6.30 to 7.30

###

Tested on: HAP1 MTAP-deleted cell line
Assay: Viability assay, MTAP-deleted cell line
Format: cell-based
Details: Homo sapiens, HAP1, viability assay, MTAP-deleted cell line; read-out: HAP1 MTAP deleted viability
pIC50: −log10 of the molar value.
Entries and their measured pIC50 follow.

COMPOUND	ASSAY_TARGET	VALUE_KIND	RESULT_VALUE
C[C@@H]1CC[C@@H](c2ccccc2)N(C(=O)C(=O)Nc2cncc(C(N)=O)c2)[C@H]1C (single isomer, unassigned) [Compound 482]	HAP1 MTAP-deleted cell line	pIC50	> 6.00

pIC50 measured on NC(=O)c1cncc(NC(=O)C(=O)N2CCCCC2C2CCC2)c1 (stereo not drawn) = < 5.00

pIC50 measured on CCc1cc(NC(=O)C(=O)N2C[C@H](C)CC[C@H]2c2ccc3cnccc3c2)cnc1N (single isomer, unassigned) = > 6.00

pIC50 measured on C[C@@H]1C[C@@H](F)[C@@H](c2ccc(F)cc2)N(C(=O)C(=O)Nc2cncc(C(N)=O)c2)C1 (racemic) = 5.00 to 6.00

pIC50 measured on CC(=O)N[C@H]1CC[C@@H]([C@@H]2CC[C@@H](C)CN2C(=O)C(=O)Nc2cnc(N)c(C)c2)CC1 (single isomer, unassigned) = < 5.00

pIC50 measured on `CCc1cc(NC(=O)C(=O)N2C[C@@H](C)CC[C@@H]2c2ccc(N3CCC(CN(C)CC)CC3)cc2)cnc1N` = > 6.00

###

Entries and their measured pIC50 follow.
Biological target: PRMT5 (Homo sapiens)
Construct: purchased Viva (custom protein)
Experiment: PRMT5 biochemical IC50 assay with SAM as cofactor
Conditions: PRMT5, SAM as cofactor; read-out: SAM IC50
pIC50: −log10 of the molar value.

COMPOUND	VALUE_KIND	RESULT_VALUE
COc1ncc(NC(=O)C(=O)N2C[C@H](C)CC[C@H]2c2ccc(NC(C)=O)nc2)cc1C(N)=O (single isomer, unassigned) [Compound 930]	pIC50	6.30 to 7.30

pIC50 measured on CCc1cc(NC(=O)C(=O)N2C[C@@H](C)CC[C@@H]2c2ccc3sc(C[C@@H](C)N(C)C)nc3c2)cnc1N [Compound 1198] = 6.30 to 7.30

pIC50 measured on CNc1nc2cc([C@H]3CC[C@H](C)CN3C(=O)C(=O)Nc3cnc(N)c(C)c3)ccc2s1 (single isomer, unassigned) [Compound 852] = 6.30 to 7.30

Data provenance: patent US11999727B2
